Value source: patent US4426390A

# reported MIC; entries follow
System: Pseudomonas aenginosa IFO3445
Assay: MIC by agar dilution method
Type: cell-based
Settings: 37° C., 18 hours

// worked examples, MIC included
CC(O)[C@@H]1C(=O)N2C(C(=O)O)=C(SCCNC(=O)CCNC(=O)C(O)C(C)(C)CO)C[C@H]12 (relative stereo) = > 50 µg/mL
Cc1nnc(SCC2=C(C(=O)O)N3C(=O)[C@@H](NC(=O)Cn4cnnn4)[C@H]3SC2)s1 [CEZ, reference compound] = > 400 µg/mL

Now take the following molecule into account.
[Q] Give its MIC value. Item: CC[C@H]1C(=O)N2C(C(=O)O)=C(SCCNC(=O)CCNC(=O)C(O)C(C)(C)CO)C[C@H]12 (relative stereo) [OA-6129A]
[A] > 100 µg/mL

###

Test system: Serratia marccscens T55
Assay: Disc assay of synergy, inhibition zones
Assay type: cell-based
Conditions: plate: + CER; disc OA-6129B2, PS-5 100 μg/ml, CER, PCG 1000 μg/ml
# reported diameter of inhibition zones; entries follow
API: value field is a number in mm; no unit string.

// worked examples, diameter of inhibition zones included
O=C(Cc1cccs1)N[C@@H]1C(=O)N2C(C(=O)[O-])=C(C[n+]3ccccc3)CS[C@H]12 = 0
CCC1C(=O)N2C(C(=O)O)=C(SCCNC(C)=O)CC12 (stereo not shown) [PS-5, reference compound] = 34.0
CC(O)[C@H]1C(=O)N2C(C(=O)O)=C(SCCNC(=O)CCNC(=O)C(O)C(C)(C)CO)C[C@H]12 (relative stereo) = 22.0

[Q] Give its diameter of inhibition zones value. Item: CC1(C)S[C@@H]2[C@H](NC(=O)Cc3ccccc3)C(=O)N2[C@H]1C(=O)O
[A] 0

###

System: Enterobacter cloacac 45
Experiment: Disc assay of synergy, inhibition zones
Type: cell-based
Details: plate: + CER; disc OA-6129B2, PS-5 100 μg/ml, CER, PCG 1000 μg/ml
experimental-readout: diameter of inhibition zones (mm)
API: value field is a number in mm; no unit string.

[Q] Give its diameter of inhibition zones value. Item: CCC1C(=O)N2C(C(=O)O)=C(SCCNC(C)=O)CC12 (stereo not shown) [PS-5, reference compound]
[A] 22.5

[Q] Could you do the same for O=C(Cc1cccs1)N[C@@H]1C(=O)N2C(C(=O)[O-])=C(C[n+]3ccccc3)CS[C@H]12 , please?
[A] 0

[Q] Could you do the same for CC(O)[C@H]1C(=O)N2C(C(=O)O)=C(SCCNC(=O)CCNC(=O)C(O)C(C)(C)CO)C[C@H]12 (relative stereo) , please?
[A] 15.0

[Q] Could you do the same for CC1(C)S[C@@H]2[C@H](NC(=O)Cc3ccccc3)C(=O)N2[C@H]1C(=O)O , please?
[A] 0

###

Test system: Pseudomonas aenginosa IFO3445
Test: MIC by agar dilution method
Format: cell-based
Details: 37° C., 18 hours
experimental-readout: MIC (mg/L)
API: value field is a number in mg/L; no unit string.

CC(OS(=O)(=O)O)[C@@H]1C(=O)N2C(C(=O)O)=C(SCCNC(=O)CCNC(=O)C(O)C(C)(C)CO)C[C@H]12 (relative stereo) [OA-6129C] = 50

Now take the following molecule into account.
[Q] Give its MIC value. Item: CCC1C(=O)N2C(C(=O)O)=C(SCCNC(C)=O)CC12 (stereo not drawn) [PS-5, reference compound]
[A] 12.5
